The measurements presented in this section are drawn from patent US4818770A.

- System: Puccinia sorghi
- measurement protocol: Infection by corn rust
- Type: in vivo
- test parameters: Puccinia sorghi; read-out: concentration providing 50% protection against corn rust

{"compound": "NCCCC(N)(C(=O)O)C(F)F (racemic)", "EC50": "< 100 µM"}
